# assay_explanation: Human HepG2 cell viability assay in 384 well format
# Format: toxicity, cell-based
# Design: dose 125 nL, time 70.5 hour; concentration not given beside the values
# study_conditions: HepG2 cells, read-out: Inhibition
quantity_name: cytotoxicity at 70.5 h

Incoming: Answer with the recorded cytotoxicity at 70.5 h for the molecule listed here: COc1ccc(CN2CCCC(Nc3cccc(F)c3)C2)cc1O (configuration not stated)
Outgoing: -2.89%

Incoming: Answer with the recorded cytotoxicity at 70.5 h for the molecule listed here: O=C(Cn1ncc(N2CCNCC2)cc1=O)NCCc1ccc(F)cc1
Outgoing: -3.8%

Incoming: Answer with the recorded cytotoxicity at 70.5 h for the molecule listed here: Cc1ccc(S(=O)(=O)NCCCN2CCC(O)CC2)cc1Cl
Outgoing: 4.78%

Incoming: Answer with the recorded cytotoxicity at 70.5 h for the molecule listed here: O=C(NCC1(O)CCSCC1)c1nccc2ccccc12
Outgoing: 13.5%

Incoming: Answer with the recorded cytotoxicity at 70.5 h for the molecule listed here: CCO[C@H]1CCN(S(=O)(=O)c2cn(C)cn2)[C@H]1Cc1ccccc1
Outgoing: -1.16%

Incoming: Answer with the recorded cytotoxicity at 70.5 h for the molecule listed here: CCCN1CCCn2nc(CNS(=O)(=O)c3cccc(C#N)c3)cc2C1
Outgoing: -12.6%

Incoming: Answer with the recorded cytotoxicity at 70.5 h for the molecule listed here: FC1(F)CCN(c2ccccc2)CC12CCN(c1ncccn1)C2 (configuration not stated)
Outgoing: -1.34%

Incoming: Answer with the recorded cytotoxicity at 70.5 h for the molecule listed here: CCN1CCC(CC(=O)NCCc2nc(C)cc(C)n2)CC1
Outgoing: -3.38%

Incoming: Answer with the recorded cytotoxicity at 70.5 h for the molecule listed here: O=C(C1CC=CC1)N1CC[C@@H]2O[C@@H](COCC3CCOCC3)CC[C@@H]21
Outgoing: 6.54%
